biological target: rhesus H3 (Macaca mulatta); construct: 445 amino acid H3 receptor; expressed in transfected cells; host or cells: Flp-In T-REx 293 Cell Line (Invitrogen), pcDNA5/FRT/TO, induced with tetracycline; experiment: GTPγS radioligand binding assay, rhesus H3 constitutive functional activity in cell membranes; format: biochemical, rhesus monkey (Macacca Mulatta); settings: relative to basal levels
MEASUREMENT TYPE: GTPγS-35 ASSAY % Inverse Agonism (%)

A: C[C@H]1CCCN1[C@H]1CCN(c2ccc3c(c2)CCN(C2CCOCC2)C3)C1.O=C(O)C(F)(F)F
B: C[C@H]1CCCN1[C@H]1CCN(c2ccc3c(c2)CCN(Cc2ccc4c(c2)OCCO4)C3)C1
Enquiry: Sort A and B by GTPγS-35 ASSAY % Inverse Agonism descending and give the first. In your reply, give the label of the chosen option.
Return: B
(B: −9.1%, A: −28.0%)

1: C[C@H]1CCCN1[C@H]1CCN(c2ccc3c(c2)CCN(C2CCC(NC(=O)OC(C)(C)C)CC2)C3)C1 (some centres unmarked)
2: CCOC(=O)C1CCC(N2CCc3cc(N4CC[C@H](N5CCC[C@@H]5C)C4)ccc3C2)CC1 (some centres unmarked)
Enquiry: Please choose the item with the lower GTPγS-35 ASSAY % Inverse Agonism value from this pair: 1 and 2 Provide the label of your selected option as the answer.
Return: 2

###

Target: rhesus H3 (Macaca mulatta)
Construct: 445 amino acid H3 receptor; expressed in transfected cells; host or cells: Flp-In T-REx 293 Cell Line (Invitrogen), pcDNA5/FRT/TO, induced with tetracycline
Assay: GTPγS radioligand binding assay, rhesus H3 constitutive functional activity in cell membranes
Type: biochemical, rhesus monkey (Macacca Mulatta)
Conditions: relative to basal levels
Procedure: Rhesus H3 membranes were prepared from the Flp-In T-REx 293 Cell Line (Invitrogen) stably transfected with pcDNA5/FRT/TO (Invitrogen) containing the rhesus monkey (Macacca Mulatta) 445 amino acid H3 receptor. (Genbank #AY231164). Stably transfected cultures were amplified in tissue culture flasks by standard tissue culture methods and induced to express rhesus H3 by exposure to 500 ng/ml tetracycline (Cellgro) for 24 hours. […]
MEASUREMENT TYPE: GTPγS-35 ASSAY % Inverse Agonism (%)

C[C@H]1CCCN1[C@H]1CCN(c2ccc3c(c2)CCN(C(=O)c2cc4c(ccn4CCOC[Si](C)(C)C)s2)C3)C1 [Example 20] ... −23.0

1: C[C@H]1CCCN1[C@H]1CCN(c2ccc3c(c2)CCN(C(=O)c2ccc(F)cc2)C3)C1 [Example 17]
2: Cc1ccc(S(=O)(=O)N2CCc3cc(N4CC[C@H](N5CCC[C@@H]5C)C4)ccc3C2)cc1 [Example 24]
3: C[C@H]1CCCN1[C@H]1CCN(c2ccc3c(c2)CCN(C(=O)C(c2ccccc2)c2ccccc2)C3)C1 [Example 13]
Enquiry: List the 3 entries from lowest GTPγS-35 ASSAY % Inverse Agonism to highest GTPγS-35 ASSAY % Inverse Agonism value. API: response body holds the labels in the requested order.
Return: 2, 3, 1
(2: −33.2%, 3: −16.1%, 1: −10.4%)

###

target: rhesus H3 (Macaca mulatta, UniProt Q865E1); construct: 445 amino acid H3 receptor; expressed in transfected cells; host or cells: Flp-In T-REx 293 Cell Line (Invitrogen), pcDNA5/FRT/TO, induced with tetracycline; assay: GTPγS radioligand binding assay, rhesus H3 constitutive functional activity in cell membranes; type: biochemical, rhesus monkey (Macacca Mulatta); conditions: relative to basal levels
Sequence (Q865E1 1-445): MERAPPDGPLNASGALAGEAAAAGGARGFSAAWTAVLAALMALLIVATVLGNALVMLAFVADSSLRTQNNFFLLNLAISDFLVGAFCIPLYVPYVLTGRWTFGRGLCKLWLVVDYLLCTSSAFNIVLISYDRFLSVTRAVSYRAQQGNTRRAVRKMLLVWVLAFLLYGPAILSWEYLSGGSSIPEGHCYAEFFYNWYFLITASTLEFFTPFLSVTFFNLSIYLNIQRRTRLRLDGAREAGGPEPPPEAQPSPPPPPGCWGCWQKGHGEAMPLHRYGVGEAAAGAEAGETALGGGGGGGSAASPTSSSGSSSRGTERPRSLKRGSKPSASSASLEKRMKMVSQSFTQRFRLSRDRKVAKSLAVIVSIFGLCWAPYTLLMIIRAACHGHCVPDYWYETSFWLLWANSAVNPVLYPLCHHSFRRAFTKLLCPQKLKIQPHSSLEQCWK
MEASUREMENT TYPE: GTPγS-35 ASSAY % Inverse Agonism (%)

I: C[C@H]1CCCN1[C@H]1CCN(c2ccc3c(c2)CCN(C(=O)c2cccnc2)C3)C1
II: C[C@H]1CCCN1[C@H]1CCN(c2ccc3c(c2)CCN(CC2CCCC2)C3)C1
III: C[C@H]1CCCN1[C@H]1CCN(c2ccc3c(c2)CN(C(=O)C2CCOCC2)CC3)C1
Enquiry: Quick favor: sort the molecules up above by GTPγS-35 ASSAY % Inverse Agonism, largest first. // rank by listing labels in the order requested
Return: II, I, III
(II: −6.9%, I: −17.2%, III: −25.5%)
